# System: Streptococcus sobrinus
# assay_info: Inhibition of Streptococcus sobrinus glucosyltransferase assessed as blockade of adherent water insoluble glucan synthesis at 100 ug/mL
Each entry below carries its recorded inhibition.

- molecule: "CC(C)C[C@H](c1c(O)c(C=O)c(O)c(C=O)c1O)[C@@]1(C)CC[C@@H]2[C@@H]1[C@H]1[C@@H](CC[C@@]2(C)O)C1(C)C [MACROCARPAL B]"
  inhibition [%]: 97.1
- molecule: "CC(C)C[C@@H](c1c(O)c(C=O)c(O)c(C=O)c1O)[C@@]1(C)CC[C@H]2C1=C[C@H](C(C)(C)O)CC[C@H]2C [MACROCARPAL D]"
  inhibition [%]: 99
- molecule: "CC(=O)CC[C@@H]1[C@H]([C@H]2C(=O)CC[C@]2(C)C(CC(C)C)c2c(O)c(C=O)c(O)c(C=O)c2O)C1(C)C (stereo partly drawn) [EUCALYPTONE]"
  inhibition [%]: 97.6
